test system: H3255; assay: relative viability (nuclei count vs DMSO), 5 days (fraction); higher = more cells survive; settings: first compound 0.05 µM
measuredEndpoint: relative viability
Answers are plain numbers.

CC1(C)CCC(c2ccc(Cl)cc2)=C(CN2CCN(c3ccc(C(=O)NS(=O)(=O)c4ccc(N[C@H](CCN5CCOCC5)CSc5ccccc5)c(S(=O)(=O)C(F)(F)F)c4)cc3)CC2)C1 [Navitoclax] + CS(=O)(=O)N1CCN(Cc2cc3nc(-c4cccc5[nH]ncc45)nc(N4CCOCC4)c3s2)CC1 [Pictilisib] (partner 1 µM) :: 0.549
CC1(C)CCC(c2ccc(Cl)cc2)=C(CN2CCN(c3ccc(C(=O)NS(=O)(=O)c4ccc(N[C@H](CCN5CCOCC5)CSc5ccccc5)c(S(=O)(=O)C(F)(F)F)c4)cc3)CC2)C1 [Navitoclax] + COc1cccc2cc(-c3nc([C@H]4CC[C@H](C(=O)O)CC4)n4ncnc(N)c34)[nH]c12 [OSI-027] (partner 0.5 µM) :: 0.568

Reported relative viability for CC1(C)CCC(c2ccc(Cl)cc2)=C(CN2CCN(c3ccc(C(=O)NS(=O)(=O)c4ccc(N[C@H](CCN5CCOCC5)CSc5ccccc5)c(S(=O)(=O)C(F)(F)F)c4)cc3)CC2)C1 [Navitoclax] + N=C(N)NC(=N)NCCc1ccccc1 [Phenformin] (partner 250 µM) was 0.376

---

tested on: NCI-H358; experiment: relative viability (nuclei count vs DMSO), 5 days (fraction); higher = more cells survive; settings: first compound 0.8 µM
Answer each item with its documented relative viability.
Give bare numbers.

Example entries and their recorded answers appear below.
C=C1C(=O)O[C@@H](CCCCCCCC)[C@@H]1C(=O)O [C-75] + CCNC(=O)c1noc(-c2cc(C(C)C)c(O)cc2O)c1-c1ccc(CN2CCOCC2)cc1 [Luminespib] (partner 0.01 µM) :: 0.314
C=C1C(=O)O[C@@H](CCCCCCCC)[C@@H]1C(=O)O [C-75] + Nc1ncn([C@H]2C[C@H](O)[C@@H](CO)O2)c(=O)n1 [Decitabine] (partner 2 µM) :: 0.203
C=C1C(=O)O[C@@H](CCCCCCCC)[C@@H]1C(=O)O [C-75] + COc1cc2c(Oc3ccc(NC(=O)C4(C(=O)Nc5ccc(F)cc5)CC4)cc3F)ccnc2cc1OCCCN1CCOCC1 [Foretinib] (partner 0.25 µM) :: 0.565

Your task in this section: give relative viability for each listed record.
1. C=C1C(=O)O[C@@H](CCCCCCCC)[C@@H]1C(=O)O [C-75] + CC(=O)c1c(C)c2cnc(Nc3ccc(N4CCNCC4)cn3)nc2n(C2CCCC2)c1=O [Palbociclib] (partner 0.5 µM)
2. C=C1C(=O)O[C@@H](CCCCCCCC)[C@@H]1C(=O)O [C-75] + Cc1nc(Nc2ncc(C(=O)Nc3c(C)cccc3Cl)s2)cc(N2CCN(CCO)CC2)n1 [Dasatinib] (partner 0.075 µM)
3. Oc1nc(-c2ccc(C(F)(F)F)cc2)nc2c1CSCC2 [XAV939] + COc1cccc2cc(-c3nc([C@H]4CC[C@H](C(=O)O)CC4)n4ncnc(N)c34)[nH]c12 [OSI-027] (partner 0.5 µM)
4. C=C1C(=O)O[C@@H](CCCCCCCC)[C@@H]1C(=O)O [C-75] + CC(=O)Nc1cccc(-n2c(=O)n(C3CC3)c(=O)c3c(Nc4ccc(I)cc4F)n(C)c(=O)c(C)c32)c1 [Trametinib] (partner 0.02 µM)

Result ::
0.147
0.157
0.785
0.151
